// provenance: the Human Domainome abundance scans (Beltran et al. 2025)

B1: Transcription elongation factor A N-terminal and central domain-containing protein, residues 30 to 77; numbered along this chain, Q8N8B7 (parent)
chain: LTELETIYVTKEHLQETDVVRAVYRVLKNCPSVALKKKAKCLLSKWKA

variants of: B1; assay: abundance fitness (aPCA) (normalised: wild type 0, dead -1); higher = more abundant; growth selection in yeast, the domain comes from the species named; details: Homo sapiens
Quantity: abundance fitness

[[record]]
sequence_code = "LTELETIYVTKEHLQETDVVRAVYRVLKNCPLVALKKKAKCLLSKWKA [S32L]"
quantity = "abundance fitness"
obs_value = 0.355

[[record]]
sequence_code = "LTELETIYVTKCHLQETDVVRAVYRVLKNCPSVALKKKAKCLLSKWKA [E12C]"
quantity = "abundance fitness"
obs_value = -0.79

[[record]]
sequence_code = "LTELETIYVTKIHLQETDVVRAVYRVLKNCPSVALKKKAKCLLSKWKA [E12I]"
quantity = "abundance fitness"
obs_value = -0.707

[[record]]
sequence_code = "LTELETIYVTKEHLQEIDVVRAVYRVLKNCPSVALKKKAKCLLSKWKA [T17I]"
quantity = "abundance fitness"
obs_value = -0.654

[[record]]
sequence_code = "LTELETIYVNKEHLQETDVVRAVYRVLKNCPSVALKKKAKCLLSKWKA [T10N]"
quantity = "abundance fitness"
obs_value = -0.546

[[record]]
sequence_code = "LTELETIYVTKEHLMETDVVRAVYRVLKNCPSVALKKKAKCLLSKWKA [Q15M]"
quantity = "abundance fitness"
obs_value = -0.452

[[record]]
sequence_code = "LTELKTIYVTKEHLQETDVVRAVYRVLKNCPSVALKKKAKCLLSKWKA [E5K]"
quantity = "abundance fitness"
obs_value = -0.393

[[record]]
sequence_code = "LFELETIYVTKEHLQETDVVRAVYRVLKNCPSVALKKKAKCLLSKWKA [T2F]"
quantity = "abundance fitness"
obs_value = -0.483

[[record]]
sequence_code = "LTELETIVVTKEHLQETDVVRAVYRVLKNCPSVALKKKAKCLLSKWKA [Y8V]"
quantity = "abundance fitness"
obs_value = -0.008

[[record]]
sequence_code = "LTELETIYVTKEHLQETDVVRAVYRVLKNCPSWALKKKAKCLLSKWKA [V33W]"
quantity = "abundance fitness"
obs_value = -0.096

[[record]]
sequence_code = "LTELETIYVTKEHLQETDVVRAVYRVLKACPSVALKKKAKCLLSKWKA [N29A]"
quantity = "abundance fitness"
obs_value = -0.086

[[record]]
sequence_code = "LTELETPYVTKEHLQETDVVRAVYRVLKNCPSVALKKKAKCLLSKWKA [I7P]"
quantity = "abundance fitness"
obs_value = 0.091

[[record]]
sequence_code = "LTELETIYVTKEHLQETDVVRAVYRVLKNCPSVALKKKAKCLLRKWKA [S44R]"
quantity = "abundance fitness"
obs_value = 0.021

[[record]]
sequence_code = "LTELETIYVTKEHLQETDVVRAVYRVLKNCPSCALKKKAKCLLSKWKA [V33C]"
quantity = "abundance fitness"
obs_value = 0.041

[[record]]
sequence_code = "LTELETIYHTKEHLQETDVVRAVYRVLKNCPSVALKKKAKCLLSKWKA [V9H]"
quantity = "abundance fitness"
obs_value = 0.107

[[record]]
sequence_code = "LTILETIYVTKEHLQETDVVRAVYRVLKNCPSVALKKKAKCLLSKWKA [E3I]"
quantity = "abundance fitness"
obs_value = -0.112

[[record]]
sequence_code = "LGELETIYVTKEHLQETDVVRAVYRVLKNCPSVALKKKAKCLLSKWKA [T2G]"
quantity = "abundance fitness"
obs_value = -0.078

[[record]]
sequence_code = "LNELETIYVTKEHLQETDVVRAVYRVLKNCPSVALKKKAKCLLSKWKA [T2N]"
quantity = "abundance fitness"
obs_value = 0.036

[[record]]
sequence_code = "LTELETIYVTKEHLQETDVVRAVYRVLKNCPSVALKKKLKCLLSKWKA [A39L]"
quantity = "abundance fitness"
obs_value = -0.089

[[record]]
sequence_code = "LTELETIYVTKEHLQETDVVRAVYRVLKNCPSVALKKKAKCYLSKWKA [L42Y]"
quantity = "abundance fitness"
obs_value = -0.737

[[record]]
sequence_code = "LTELETIYVTKEHVQETDVVRAVYRVLKNCPSVALKKKAKCLLSKWKA [L14V]"
quantity = "abundance fitness"
obs_value = 0.172

[[record]]
sequence_code = "LTELETIYVTKLHLQETDVVRAVYRVLKNCPSVALKKKAKCLLSKWKA [E12L]"
quantity = "abundance fitness"
obs_value = -0.792

[[record]]
sequence_code = "LTELETIYVTKEHCQETDVVRAVYRVLKNCPSVALKKKAKCLLSKWKA [L14C]"
quantity = "abundance fitness"
obs_value = 0.061

[[record]]
sequence_code = "LTELETIYVTKEHLQETDVVRAVYRVLKNCPSVGLKKKAKCLLSKWKA [A34G]"
quantity = "abundance fitness"
obs_value = -0.028

[[record]]
sequence_code = "LTELNTIYVTKEHLQETDVVRAVYRVLKNCPSVALKKKAKCLLSKWKA [E5N]"
quantity = "abundance fitness"
obs_value = -0.587

[[record]]
sequence_code = "LTELETIYVTKEHLQETDQVRAVYRVLKNCPSVALKKKAKCLLSKWKA [V19Q]"
quantity = "abundance fitness"
obs_value = -0.464

[[record]]
sequence_code = "LTELETIYVTKEHLQETDVVRAVYRCLKNCPSVALKKKAKCLLSKWKA [V26C]"
quantity = "abundance fitness"
obs_value = 0.15

[[record]]
sequence_code = "LTELETIYVTKEHLQETDVVIAVYRVLKNCPSVALKKKAKCLLSKWKA [R21I]"
quantity = "abundance fitness"
obs_value = -1.03

[[record]]
sequence_code = "LTSLETIYVTKEHLQETDVVRAVYRVLKNCPSVALKKKAKCLLSKWKA [E3S]"
quantity = "abundance fitness"
obs_value = -0.149

[[record]]
sequence_code = "LVELETIYVTKEHLQETDVVRAVYRVLKNCPSVALKKKAKCLLSKWKA [T2V]"
quantity = "abundance fitness"
obs_value = -0.813

[[record]]
sequence_code = "LTELETIYVTKEVLQETDVVRAVYRVLKNCPSVALKKKAKCLLSKWKA [H13V]"
quantity = "abundance fitness"
obs_value = -0.698

[[record]]
sequence_code = "LTELETIYVTKEHLQETDVVRAVLRVLKNCPSVALKKKAKCLLSKWKA [Y24L]"
quantity = "abundance fitness"
obs_value = 0.205

[[record]]
sequence_code = "LTELETIYVTKEHLQECDVVRAVYRVLKNCPSVALKKKAKCLLSKWKA [T17C]"
quantity = "abundance fitness"
obs_value = -0.103

[[record]]
sequence_code = "LTELEDIYVTKEHLQETDVVRAVYRVLKNCPSVALKKKAKCLLSKWKA [T6D]"
quantity = "abundance fitness"
obs_value = 0.094

[[record]]
sequence_code = "LTELETIYVTKEHLQETDVVRAVYRVLKNCPRVALKKKAKCLLSKWKA [S32R]"
quantity = "abundance fitness"
obs_value = 0.022

[[record]]
sequence_code = "LTELETIYVTKEHLQETRVVRAVYRVLKNCPSVALKKKAKCLLSKWKA [D18R]"
quantity = "abundance fitness"
obs_value = 0.24

[[record]]
sequence_code = "LTEDETIYVTKEHLQETDVVRAVYRVLKNCPSVALKKKAKCLLSKWKA [L4D]"
quantity = "abundance fitness"
obs_value = 0.257

[[record]]
sequence_code = "LTELETIYVTKEHRQETDVVRAVYRVLKNCPSVALKKKAKCLLSKWKA [L14R]"
quantity = "abundance fitness"
obs_value = 0.21

[[record]]
sequence_code = "LTELETIYVTKEHLQETDVVRAVYRVLKNCPSVALKKKAKCCLSKWKA [L42C]"
quantity = "abundance fitness"
obs_value = -0.839

[[record]]
sequence_code = "LTELETIYVTKEHLQSTDVVRAVYRVLKNCPSVALKKKAKCLLSKWKA [E16S]"
quantity = "abundance fitness"
obs_value = 0.021

[[record]]
sequence_code = "LTELETIYVTKEHLQEHDVVRAVYRVLKNCPSVALKKKAKCLLSKWKA [T17H]"
quantity = "abundance fitness"
obs_value = -0.37

[[record]]
sequence_code = "LTELETIYVTKEHLQETDVVRAVYRVLKNCPSVALKKKAKCLLSRWKA [K45R]"
quantity = "abundance fitness"
obs_value = -0.123

[[record]]
sequence_code = "LTELETIYVTKEHLQETDVVRQVYRVLKNCPSVALKKKAKCLLSKWKA [A22Q]"
quantity = "abundance fitness"
obs_value = -0.082

[[record]]
sequence_code = "LTELETIYVTKEHLQETDVVRAVKRVLKNCPSVALKKKAKCLLSKWKA [Y24K]"
quantity = "abundance fitness"
obs_value = 0.219

[[record]]
sequence_code = "LTELETIYVTKEHLQETDVVRAVYRVLKNCPSVALKKKAKCLRSKWKA [L43R]"
quantity = "abundance fitness"
obs_value = -0.889

[[record]]
sequence_code = "LTELETIYVTKEHLQETDVVRAVYRVLKNCPSVALKKKAKCLLSSWKA [K45S]"
quantity = "abundance fitness"
obs_value = -0.55

